Assay: Human HepG2 cell viability assay in 384 well format
Type: toxicity, cell-based
Parameters: dose 125 nL, time 70.5 hour; concentration not given beside the values
Conditions: HepG2 cells, read-out: Inhibition
measured_metric: cytotoxicity at 70.5 h (%)
Field format: number, assumed %, no unit text.

Request: Fill in cytotoxicity at 70.5 h for record COCCNC(=O)c1cc(F)ccc1NS(C)(=O)=O
Response: -1.48

Request: Fill in cytotoxicity at 70.5 h for record CCS(=O)(=O)N1CCOC2(COCCN(C(C)=O)C2)C1 (stereo not given)
Response: 28.6

Request: Fill in cytotoxicity at 70.5 h for record CCSc1cc(C(=O)NCc2ccccc2O)ccn1
Response: -4.36

Request: Fill in cytotoxicity at 70.5 h for record Cc1cc(C(=O)N2CCC(O)(Cn3ccc4ccncc43)CC2)on1
Response: 17.8

###

Assay: Human HepG2 cell viability assay in 384 well format
Assay type: toxicity, cell-based
Design: dose 125 nL, time 70.5 hour; concentration not given beside the values
Settings: HepG2 cells, read-out: Inhibition
measured_metric: cytotoxicity at 70.5 h (%)
Field format: number, assumed %, no unit text.

# annotated cases, reported cytotoxicity at 70.5 h shown
molecule	cytotoxicity at 70.5 h / %
CC(C)(C(=O)NCC(N)=O)c1ccccc1F	-5.2
CN(CCCOc1ccccc1)S(=O)(=O)c1cnn(C)c1	21.2

Request: Fill in cytotoxicity at 70.5 h for record O=C(NC1CCCN(c2ccccc2Cl)C1)c1c[nH]nn1 (centres undefined)
Response: -10.1

Request: Fill in cytotoxicity at 70.5 h for record O=C(NCCc1ccc(F)cc1)C1CN(C(=O)Cn2cncn2)C1
Response: -13.2

Request: Fill in cytotoxicity at 70.5 h for record O=C(Cc1cccnc1)NCCSc1ccccc1F
Response: -11.1

Request: Fill in cytotoxicity at 70.5 h for record CC(C)(CO)Nc1cc(-c2ccncc2)ncn1
Response: -2.83

Request: Fill in cytotoxicity at 70.5 h for record CNC(=O)C(CC(C)C)NC(=O)c1cccc(-c2nc(C)cs2)c1 (centres undefined)
Response: 15.4

###

Assay: Human HepG2 cell viability assay in 384 well format
Type: toxicity, cell-based
Parameters: dose 125 nL, time 70.5 hour; concentration not given beside the values
Details: HepG2 cells, read-out: Inhibition
measured_metric: cytotoxicity at 70.5 h (%)
Field format: number, assumed %, no unit text.

compound	unit_spec	observed_result
Cc1n[nH]c(C2CN(Cc3csc(C4CCCCC4)n3)CCO2)n1 (centres undefined)	%	0.0665

Request: Fill in cytotoxicity at 70.5 h for record COCC(=O)N1CCc2nc(C(=O)Nc3cccnc3)sc2CC1
Response: -2.18

Request: Fill in cytotoxicity at 70.5 h for record Cc1n[nH]c(C)c1C1COCCN1C(=O)Cc1ccccc1F (centres undefined)
Response: -0.503

Request: Fill in cytotoxicity at 70.5 h for record Cc1nc(-c2cc(F)c3c(c2)CC(CN)O3)c[nH]1 (centres undefined)
Response: 3.79

Request: Fill in cytotoxicity at 70.5 h for record CN(c1ncc(C(=O)NCc2ccccc2)c(N)n1)C1CCCCC1
Response: 18

###

Test: Human HepG2 cell viability assay in 384 well format
Type: toxicity, cell-based
Design: dose 125 nL, time 70.5 hour; concentration not given beside the values
Details: HepG2 cells, read-out: Inhibition
cytotoxicity at 70.5 h values for the compounds below.
Field format: number, assumed %, no unit text.

compound	cytotoxicity at 70.5 h [%]
COCCC(=O)N1CCC2(CCN(Cc3ccc(C)cc3)CC2)C1	-7.89

Request: Fill in cytotoxicity at 70.5 h for record Cc1ccc(NCCNC(=O)c2cc(CC(C)C)n[nH]2)nn1
Response: 4.32

Request: Fill in cytotoxicity at 70.5 h for record CC(C)(C)c1cn(C[C@H]2CC3CCN2C[C@@H]3C(=O)N2CCOCC2)nn1 (some centres undefined)
Response: 2.28

Request: Fill in cytotoxicity at 70.5 h for record Cn1cc(CN(Cc2cccc(-n3cccn3)c2)C2CC2)cn1
Response: 43.4
